- Test system: UACC-257 melanoma
- experiment: NCI tumour cell line growth inhibition, 48 h
experimentalReadout: TGI (µM)
Give the value in µM but do not write µM after it.

>  <molecule>
CCOC(=O)/C=C(/C(=O)OCC)n1ccc(=O)n(/C(=C/C(=O)OCC)C(=O)OCC)c1=O

>  <subjectOfTest>
UACC-257 melanoma

>  <unitOfMeasurement>
µM

>  <TGI>
24.5

$$$$

Lab note: next molecule to report on.
Any idea what TGI came out for CC1OC(OC2C(O)COC(OC3C(C)OC(OC4C(OC(=O)[C@]56CCC(C)(C)C[C@@H]5C5=CCC7[C@@]8(C)C[C@H](O)[C@H](OC9OC(CO)C(O)C(OC%10OC(CO)C(O)C(O)C%10O)C9O)[C@@](C)(CO)[C@@H]8CC[C@@]7(C)[C@]5(C)CC6)OCC(O)C4O)C(O)C3O)C2O)C(O)C(O)C1O (some centres undefined) on UACC-257 melanoma?
35.6

meta.source: PubChem BioAssay (NCI)
